- Test system: P-gp
- experiment description: Bidirectional transport of digoxin across monolayers with and without zosuquidar
- Type: in vitro ADME
- conditions used: human, conventional scaffold; no inhibitor; n = 3; read-out: efflux ratio Papp(B-L)/Papp(L-B)
measure name: efflux ratio at 3 h
Just the number.

Exercise: # query: efflux ratio at 3 h of entry C[C@H]1O[C@@H](O[C@H]2[C@@H](O)C[C@H](O[C@H]3[C@@H](O)C[C@H](O[C@H]4CC[C@@]5(C)[C@H](CC[C@@H]6[C@@H]5C[C@@H](O)[C@]5(C)[C@@H](C7=CC(=O)OC7)CC[C@]65O)C4)O[C@@H]3C)O[C@@H]2C)C[C@H](O)[C@@H]1O
Key: 2.3
